- Test system: INS-1E rat beta cells, no cytokines, CellTiter-Glo ATP, 48 h
- PROTOCOL_TEXT: cytokine-free beta-cell viability effect – INS-1E rat cells, ATP luminescence, cherry pick, counter-screen for beta-cell apoptosis protection project, dose response (AID 463229)
Kindly state AC50 for each of the entries shown.

MOLECULE | AC50
CCC1=NN(C(=O)c2cccc(Br)c2)C(O)(c2ccc(Br)cc2)C1 (stereo not given) | 9.79 µM

Record AC50 per entry; entries follow.
1. Cn1nnnc1N=N/C(=N/Nc1ccccc1)c1ccccc1
2. O=C(Nc1nc2c(F)cc(F)cc2s1)c1ccccn1
3. CCN1c2ccccc2N(C)C1(C)c1ccccc1 (stereo not given)
4. COc1ccc(-c2c[n+]3c4n2CCCCC4=C(c2ccc(Br)cc2)C3)cc1

(A)
1. 4.36 µM
2. 6.37 µM
3. 4.56 µM
4. 3.14 µM

* * *

- Tested on: INS-1E rat beta cells, no cytokines, CellTiter-Glo ATP, 48 h
- PROTOCOL_TEXT: cytokine-free beta-cell viability effect – INS-1E rat cells, ATP luminescence, cherry pick, counter-screen for beta-cell apoptosis protection project, dose response (AID 463229)
ASSAY_ENDPOINT: AC50

MOLECULE | AC50
CC(=O)Oc1c(C)cc(Cl)cc1C(=O)Nc1ccc([N+](=O)[O-])cc1Cl | 1.43 µM

Batch lookup, AC50 per entry.
1. Cc1ccc(Nc2cc(C)nn2-c2nc(C)cc(=O)[nH]2)cc1
2. O=C(CNc1cccc2ccccc12)N/N=C/c1ccc([N+](=O)[O-])o1
3. COc1ccc2cc3[n+](cc2c1OC)CCc1cc2c(cc1-3)OCO2
4. Cc1ccc2[nH]cc(/C=C/c3cc[n+](C)cc3)c2c1
5. O=C(Nc1nc(-c2ccccn2)cs1)c1ccc(F)c(S(=O)(=O)N2CCOCC2)c1

(A)
["1.57 µM", "11.5 µM", "5.44 µM", "5.46 µM", "7.51 µM"]

* * *

Consider the following compounds; for each one, report its AC50.
- Tested on: INS-1E rat beta cells, no cytokines, CellTiter-Glo ATP, 48 h
- PROTOCOL_TEXT: cytokine-free beta-cell viability effect – INS-1E rat cells, ATP luminescence, cherry pick, counter-screen for beta-cell apoptosis protection project, dose response (AID 463229)

Count: 4. Required value per item: AC50.
1. Cc1cc(/C=N/n2c(COc3ccccc3C)nc3ccccc3c2=O)c(O)c([N+](=O)[O-])c1
2. CC(=O)c1ccc(N2CCN(S(=O)(=O)c3ccc4c(c3)CC(C)N4C(C)=O)CC2)cc1 (centres undefined)
3. O=C(N/N=C/c1cc([N+](=O)[O-])ccc1O)c1cccc(NC(=O)c2cccc(Cl)c2)c1
4. Cc1ccc(-n2c(Cl)c(Cl)nc(Cl)c2=O)cc1

(A)
8.92 µM
8.54 µM
5.82 µM
6.66 µM

* * *

- System: INS-1E rat beta cells, no cytokines, CellTiter-Glo ATP, 48 h
- PROTOCOL_TEXT: cytokine-free beta-cell viability effect – INS-1E rat cells, ATP luminescence, cherry pick, counter-screen for beta-cell apoptosis protection project, dose response (AID 463229)
ASSAY_ENDPOINT: AC50

Example entries begin here.
MOLECULE | ASSAY_RESULT
COc1ccc2cc(C(=O)N/N=C/c3sc4ccccc4c3O)ccc2c1 | 7.3 µM
Cc1ccc2oc(-c3ccc(NC(=O)c4cccnc4)cc3)nc2c1 | 19.1 µM
Cc1cc(N2CCN(C)CC2)ccc1NC(=O)c1c2c(nc3ccccc13)CCN(Cc1ccccc1)C2 | 8 µM

Please turn your attention to the following entry.
(Q) So what's the measured AC50 for this one? CCOC(=O)N1CCC(NC(=O)C2CCCN(Cc3nc(-c4cccc(Cl)c4)oc3C)C2)CC1 (centres undefined)
(A) 6.01 µM

* * *

- Tested on: INS-1E rat beta cells, no cytokines, CellTiter-Glo ATP, 48 h
- PROTOCOL_TEXT: cytokine-free beta-cell viability effect – INS-1E rat cells, ATP luminescence, cherry pick, counter-screen for beta-cell apoptosis protection project, dose response (AID 463229)
ASSAY_ENDPOINT: AC50

These recorded examples may help you get a feel for the data.
MOLECULE | ASSAY_ENDPOINT | ASSAY_RESULT
Cc1ccc(Cn2c(=N)n(CC(=O)c3ccccc3)c3ccccc32)cc1 | AC50 | 9.12 µM
Cc1ccc(-c2nc(NC(=O)c3nn(C)cc3[N+](=O)[O-])sc2C)cc1C | AC50 | 3.43 µM
CCn1c(NN=O)nc2ccccc21 | AC50 | 7.85 µM

# per-item lookup of AC50; items listed below
1. O=C(OCn1ncc(Br)c(Br)c1=O)c1ccccc1Cl
2. O=C(CNC(=O)c1ccccc1)N/N=C/c1cc(Br)ccc1O

(A)
1. 4.55 µM
2. 15.2 µM

Hi there! I need AC50 for each item below, if you can.
1. CC(=O)c1c(C)oc2ccc(N(C(C)=O)S(=O)(=O)c3cccc4cccnc34)cc12
2. COc1ccc(-c2sc3ccccc3c2-c2ccc(OCCN(C)C)cc2)cc1
3. COc1cccc(/C=N/Nc2nc3ccccc3[nH]2)c1O
4. Fc1ccc2nc(Nc3nc4c(F)cc(F)cc4s3)sc2c1
5. COc1ccccc1NC(=O)c1cc2cc(Br)ccc2cc1O
6. O=C(NNC(=O)c1ccccc1O)c1ccc(Cl)c(S(=O)(=O)N2CCc3ccccc32)c1
7. CCCCC(=O)NC(c1ccccc1)c1ccc2cccnc2c1O (centres undefined)

(A)
["7.79 µM", "7.12 µM", "8.89 µM", "7.69 µM", "7.8 µM", "7.82 µM", "2.24 µM"]

* * *

Record form. Attribute: AC50. Fill in for each entry.
- Test system: INS-1E rat beta cells, no cytokines, CellTiter-Glo ATP, 48 h
- PROTOCOL_TEXT: cytokine-free beta-cell viability effect – INS-1E rat cells, ATP luminescence, cherry pick, counter-screen for beta-cell apoptosis protection project, dose response (AID 463229)

I'm hoping you can list AC50 for every compound here, please.
1. COc1ccc(OC)c(NC(=O)CSc2ncnc3c2cnn3-c2ccccc2Cl)c1
2. COc1cccc(/C=N/NC(=O)c2cc(-c3ccccn3)nc3ccccc23)c1O
3. O=[N+]([O-])c1ccc(O)c(/C=N/Nc2ccccn2)c1
4. CC(=O)c1ccc(OCc2cc(C(=O)N3CCCCC3c3cccnc3)no2)cc1 (stereo not drawn)
5. O=C(NCc1cccnc1)c1ccc(NC(=O)c2ccc([N+](=O)[O-])cc2)cc1
6. COc1ccc(-c2cn(Cc3ccc(C(=O)c4ccccc4)cc3)nn2)cc1
7. CCC[N+]1(CC#CCC(c2ccccc2)c2ccccc2)CCCCC1
8. Cc1ccc(S(=O)(=O)CC2CSc3nc4ccccc4n32)cc1 (stereo not drawn)

(A)
1. 2.31 µM
2. 7.61 µM
3. 1.84 µM
4. 22.4 µM
5. 0.215 µM
6. 11.6 µM
7. 2.03 µM
8. 6.51 µM

* * *

- System: INS-1E rat beta cells, no cytokines, CellTiter-Glo ATP, 48 h
- PROTOCOL_TEXT: cytokine-free beta-cell viability effect – INS-1E rat cells, ATP luminescence, cherry pick, counter-screen for beta-cell apoptosis protection project, dose response (AID 463229)
ASSAY_ENDPOINT: AC50

Below are worked cases with known answers.
COMPOUND | AC50
CN(C)CCCN(C(=O)c1ccc(S(=O)(=O)N(C)Cc2ccccc2)cc1)c1nc2cc3c(cc2s1)OCO3 | 15.9 µM
COc1ccc(C2c3ccc4ccccc4c3Oc3ncn(CCCN(C)C)c(=N)c32)cc1 (stereo not given) | 8.02 µM
Cc1ccc(-c2[nH]ncc2/C=N/n2c(COc3ccccc3C)nc3ccccc3c2=O)cc1 | 8.38 µM
C/C(=N\NC(=O)c1ccccc1NC(=O)c1ccc(Cl)cc1)c1ccncc1 | 0.967 µM

(Q) Which measured AC50 value corresponds to CCCCCCOC(=O)C[N+](C)(C)CCOC1CC2CCC1(C)C2(C)C (stereo not given) ?
(A) 4.48 µM

* * *

- System: INS-1E rat beta cells, no cytokines, CellTiter-Glo ATP, 48 h
- PROTOCOL_TEXT: cytokine-free beta-cell viability effect – INS-1E rat cells, ATP luminescence, cherry pick, counter-screen for beta-cell apoptosis protection project, dose response (AID 463229)
What AC50 was measured for each of the following?

Study these solved cases before continuing.
MOLECULE | AC50
COCCC1CCCCN1C(=O)c1cc(COc2ccc(-n3cncn3)cc2)on1 (stereo not given) | 6.35 µM
COC(/C(=N/O)c1ccc(Cl)cc1)c1ccccc1 (stereo not given) | 2.66 µM
C[C@H]1CCC/C=C/C2C[C@H](O)CC2[C@H](O)/C=C/C(=O)O1 (stereo not given in full) | 0.94 µM

I would be grateful if you could provide AC50 for each of the following entries.
1. COC(=O)c1ccc2[nH]c3cccc(/C(=C/c4ccccc4)c4ccccc4)c3c2c1
2. Cc1cc([N+](=O)[O-])c2ccccc2[n+]1[O-]
3. COc1cnc(-c2ccccn2)nc1Oc1ccc(Cl)c2ccccc12
4. COC(=O)C1CN(C#N)N(c2ccc(Cl)cc2)C12c1ccccc1-c1ccccc12 (stereo not given)
5. CN1CCN(c2ccc([N+](=O)[O-])c3no[n+]([O-])c23)CC1
6. CCOc1ccc(OCc2ccc(C(=O)N/N=C(\C)c3ccccn3)cc2)cc1

(A)
["15.7 µM", "0.454 µM", "15.3 µM", "4.26 µM", "1.9 µM", "5.09 µM"]

(Q) Consider the molecule shown here: CC1Cc2cc(S(=O)(=O)N3CCC(C(=O)N4CCN(c5ccccc5F)CC4)CC3)ccc2N1C(=O)C1CC1 (stereo not given) What is its recorded AC50?
(A) 8 µM
